experiment: Cytotoxicity against mouse RAW264.7 cells assessed as inhibition of cell viability incubated for 48 hrs by MTT assay; format: toxicity, cell-based
REPORTED PROPERTY: log10 CC50 at 48 h (log10 of the value in µM)
Units before log transform: µM; reported quantity: CC50 at 48 h; transform: log10.

Solved entries:
Per the record, C/C(=N\N=c1\scc(-c2ccccc2)n1C)c1cccnc1 has log10 CC50 at 48 h of 0.74

log10 CC50 at 48 h for C/C(=N\NC(N)=S)c1cccnc1 is 2.33

// sample C/C(=N\N=c1/[nH]c(-c2ccc([N+](=O)[O-])cc2)cs1)c1cccnc1 , its log10 CC50 at 48 h was 1.80

Entry C/C(=N\Nc1nc(-c2ccccc2)cs1)c1cccnc1 ; log10 CC50 at 48 h = 1.26

Given item C/C(=N\N=c1\scc(-c2ccc([N+](=O)[O-])cc2)n1C)c1cccnc1 , the value recorded as its log10 CC50 at 48 h is 1.61

Reported log10 CC50 at 48 h ( C/C(=N\N=c1\scc(-c2ccccc2)n1-c1ccccc1)c1cccnc1 ) = 1.47

Moving on to another compound below.
Per the records, this compound ( C/C(=N\N=c1/[nH]c(-c2ccc(C)cc2)cs1)c1cccnc1 ) has log10 CC50 at 48 h equal to 1.40

====

Consider the following compounds and their measured selectivity ratio readings.
test: Selectivity index, ratio of CC50 for mouse L929 cells to IC50 for antiparasitic activity against trypomastigote and amastigote form of Trypanosoma cruzi Tulahuen expressing Escherichia coli beta-galactosidase infected in mouse L929 cells; format: toxicity; conditions: read-out: Selectivity Index

Reported selectivity ratio for C/C(=N\N=c1/[nH]c(-c2ccc(F)cc2)cs1)c1cccnc1 was > 84.2

response.value for C/C(=N\N=c1/[nH]c(-c2ccc([N+](=O)[O-])cc2)cs1)c1cccnc1 (field: selectivity ratio) = > 5

Continuing:
GET /value?item= COc1ccc(-c2cs/c(=N/N=C(\C)c3cccnc3)n2-c2ccccc2)cc1 &field=selectivity ratio returns > 26

====

List of IC50 values.
tested on: Leishmania infantum; assay: Antiparasitic activity against Leishmania infantum amastigote expressing Escherichia coli beta-galactosidase infected in mouse RAW264.7 cells assessed as reduction in parasitic growth using CPRG as substrate preincubated with compound for 24 hrs followed by substrate addition and measured after 2 to 6 hrs by Spectrophotometric analysis; assay type: functional, organism-based; conditions: Leishmania infantum, RAW264.7; read-out: IC50
Enter your answer as a number in µM; do not include the unit.

Record COc1ccc(-c2cs/c(=N/N=C(\C)c3cccnc3)[nH]2)cc1 . Reported IC50: 92.6

Measured IC50, C/C(=N\N=c1\scc(-c2ccc(F)cc2)n1-c1ccccc1)c1cccnc1 : 10.8

Continuing:
Lab book: IC50 of CCCCCCCCCCCCCCCCOP(=O)([O-])OCC[N+](C)(C)C noted as 1.7

For record C/C(=N\N=c1\scc(-c2ccc([N+](=O)[O-])cc2)n1-c1ccccc1)c1cccnc1 the listed IC50 is 9.1

====

test: Cytotoxicity against mouse L929 cells assessed as inhibition of cell viability incubated for 96 hrs by MTT assay; format: toxicity, cell-based
REPORTED PROPERTY: CC50 at 96 h (µM)
The reply should be a number in µM, with the unit left off.

# compound COc1ccc(-c2cs/c(=N/N=C(\C)c3cccnc3)n2C)cc1 ; its CC50 at 96 h = 6.2

The recorded CC50 at 96 h for C/C(=N\N=c1/[nH]c(-c2ccc(C)cc2)cs1)c1cccnc1 is 293

The reported value for C/C(=N\N=c1\scc(-c2ccc(C)cc2)n1C)c1cccnc1 in terms of CC50 at 96 h is 23

Next up:
The compound listed as C/C(=N\N=c1\scc(-c2ccc(C)cc2)n1-c1ccccc1)c1cccnc1 shows CC50 at 96 h equal to 7.3
